Some molecules, each annotated with its measured speed of sound.
# testContext: 293.15 K; 100 kPa; Liquid; Frequency=3 MHz; Sing-around technique in a fixed-path interferometer

>  <molecule>
C1CCOCC1 [tetrahydropyran]

>  <unit>
m/s

>  <speed of sound>
1293

$$$$
>  <molecule>
C1COCCO1

>  <unit>
m/s

>  <speed of sound>
1367.8

$$$$
>  <molecule>
O=C1CCCCC1

>  <unit>
m/s

>  <speed of sound>
1431.2

$$$$
>  <molecule>
O=C1CCCCCC1

>  <unit>
m/s

>  <speed of sound>
1477.3

$$$$

====

# testContext: 308.15 K; 100 kPa; Liquid; Frequency=3 MHz; Sing-around technique in a fixed-path interferometer
readoutName: speed of sound (m/s)

>  <compound>
O=C1CCCCC1

>  <unit>
m/s

>  <reported>
1375.1

$$$$
>  <compound>
C1COCCO1

>  <unit>
m/s

>  <reported>
1302.5

$$$$
>  <compound>
O=C1CCCCCC1

>  <unit>
m/s

>  <reported>
1409.6

$$$$
>  <compound>
C1CCOCC1 [tetrahydropyran]

>  <unit>
m/s

>  <reported>
1224.3

$$$$

====

Some molecules, each annotated with its measured mass density.
# testContext: 308.15 K; 101.33 kPa; Liquid; Vibrating tube method

>  <molecule>
C1CCOCC1 [tetrahydropyran]

>  <unit>
kg/m3

>  <mass density>
868.75

$$$$
>  <molecule>
O=C1CCCCC1

>  <unit>
kg/m3

>  <mass density>
933.19

$$$$
>  <molecule>
C1COCCO1

>  <unit>
kg/m3

>  <mass density>
1016.59

$$$$
>  <molecule>
O=C1CCCCCC1

>  <unit>
kg/m3

>  <mass density>
939.14

$$$$

====

# testContext: 293.15 K; 101.33 kPa; Liquid; Vibrating tube method
Some compounds, each annotated with its measured mass density.

>  <compound>
C1CCOCC1 [tetrahydropyran]

>  <mass density, kg/m3>
884.23

$$$$
>  <compound>
C1COCCO1

>  <mass density, kg/m3>
1033.59

$$$$
>  <compound>
O=C1CCCCC1

>  <mass density, kg/m3>
947.38

$$$$
>  <compound>
O=C1CCCCCC1

>  <mass density, kg/m3>
951.85

$$$$

====

Some molecules, each annotated with its measured molar heat capacity at constant pressure.
# protocolText: molar heat capacity at constant pressure
# testContext: 308.15 K; 101.33 kPa; Liquid; Extra sensitive DSC
Numbers after ± are expanded uncertainties.
readoutName: molar heat capacity at constant pressure

>  <molecule>
C1CCOCC1 [tetrahydropyran]

>  <reported>
153.01 ± 5.9 J/K/mol

$$$$
>  <molecule>
O=C1CCCCC1

>  <reported>
182.46 ± 7.1 J/K/mol

$$$$
>  <molecule>
O=C1CCCCCC1

>  <reported>
204.51 ± 7.9 J/K/mol

$$$$
>  <molecule>
C1COCCO1

>  <reported>
155.09 ± 6 J/K/mol

$$$$

====

# testContext: 303.15 K; 101.33 kPa; Liquid; Vibrating tube method

>  <compound>
O=C1CCCCCC1

>  <unit>
kg/m3

>  <mass density>
943.38

$$$$
>  <compound>
C1CCOCC1 [tetrahydropyran]

>  <unit>
kg/m3

>  <mass density>
873.91

$$$$
>  <compound>
O=C1CCCCC1

>  <unit>
kg/m3

>  <mass density>
938.07

$$$$
>  <compound>
C1COCCO1

>  <unit>
kg/m3

>  <mass density>
1022.28

$$$$

====

# testContext: 298.15 K; 100 kPa; Liquid; Frequency=3 MHz; Sing-around technique in a fixed-path interferometer
Some compounds, each annotated with its measured speed of sound.

>  <compound>
C1COCCO1

>  <speed of sound [m/s]>
1346

$$$$
>  <compound>
C1CCOCC1 [tetrahydropyran]

>  <speed of sound [m/s]>
1269.7

$$$$
>  <compound>
O=C1CCCCC1

>  <speed of sound [m/s]>
1415.5

$$$$
>  <compound>
O=C1CCCCCC1

>  <speed of sound [m/s]>
1455

$$$$

====

# protocolText: molar heat capacity at constant pressure
# testContext: 293.15 K; 101.33 kPa; Liquid; Extra sensitive DSC
Numbers after ± are expanded uncertainties.
Some molecules, each annotated with its measured molar heat capacity at constant pressure.
readoutName: molar heat capacity at constant pressure

>  <molecule>
O=C1CCCCCC1

>  <readoutName>
molar heat capacity at constant pressure

>  <reported>
201.11 ± 7.8 J/K/mol

$$$$
>  <molecule>
O=C1CCCCC1

>  <readoutName>
molar heat capacity at constant pressure

>  <reported>
176.17 ± 6.8 J/K/mol

$$$$
>  <molecule>
C1COCCO1

>  <readoutName>
molar heat capacity at constant pressure

>  <reported>
151.62 ± 5.9 J/K/mol

$$$$
>  <molecule>
C1CCOCC1 [tetrahydropyran]

>  <readoutName>
molar heat capacity at constant pressure

>  <reported>
148.03 ± 5.7 J/K/mol

$$$$

====

Some compounds, each annotated with its measured speed of sound.
# testContext: 303.15 K; 100 kPa; Liquid; Frequency=3 MHz; Sing-around technique in a fixed-path interferometer

>  <compound>
C1CCOCC1 [tetrahydropyran]

>  <speed of sound (m/s)>
1246.7

$$$$
>  <compound>
O=C1CCCCC1 [cyclohexanone]

>  <speed of sound (m/s)>
1395.1

$$$$
>  <compound>
C1COCCO1 [1,4-dioxane]

>  <speed of sound (m/s)>
1324.4

$$$$
>  <compound>
O=C1CCCCCC1 [cycloheptanone]

>  <speed of sound (m/s)>
1432.4

$$$$

====

Some molecules, each annotated with its measured molar heat capacity at constant pressure.
# protocolText: molar heat capacity at constant pressure
# testContext: 303.15 K; 101.33 kPa; Liquid; Extra sensitive DSC

>  <molecule>
O=C1CCCCCC1

>  <molar heat capacity at constant pressure, J/K/mol>
203.21

$$$$
>  <molecule>
C1CCOCC1 [tetrahydropyran]

>  <molar heat capacity at constant pressure, J/K/mol>
151.18

$$$$
>  <molecule>
C1COCCO1

>  <molar heat capacity at constant pressure, J/K/mol>
153.92

$$$$
>  <molecule>
O=C1CCCCC1

>  <molar heat capacity at constant pressure, J/K/mol>
180.38

$$$$

====

# protocolText: molar heat capacity at constant pressure
# testContext: 298.15 K; 101.33 kPa; Liquid; Extra sensitive DSC

>  <compound>
O=C1CCCCCC1

>  <molar heat capacity at constant pressure / J/K/mol>
202.01

$$$$
>  <compound>
C1CCOCC1 [tetrahydropyran]

>  <molar heat capacity at constant pressure / J/K/mol>
149.68

$$$$
>  <compound>
C1COCCO1

>  <molar heat capacity at constant pressure / J/K/mol>
152.76

$$$$
>  <compound>
O=C1CCCCC1

>  <molar heat capacity at constant pressure / J/K/mol>
178.27

$$$$

====

# testContext: 298.15 K; 101.33 kPa; Liquid; Vibrating tube method
Numbers after ± are expanded uncertainties.
readoutName: mass density

>  <molecule>
O=C1CCCCCC1

>  <reported>
947.62 ± 1 kg/m3

$$$$
>  <molecule>
C1COCCO1

>  <reported>
1027.94 ± 1 kg/m3

$$$$
>  <molecule>
C1CCOCC1 [tetrahydropyran]

>  <reported>
879.09 ± 1 kg/m3

$$$$
>  <molecule>
O=C1CCCCC1

>  <reported>
942.92 ± 1 kg/m3

$$$$
